target: wildtype LRRK2 (Homo sapiens); construct: expressed in transfected cells; host or cells: HEK293 (ATCC CRL-1573), transient transfection, mammalian expression vector with ubiquitin promoter; assay: LRRK2 degradation assay, HiBit-tagged wildtype LRRK2 expressed from plasmid in HEK293 cells (Nano-Glo Dual-Luciferase); assay type: cell-based; conditions: HiBit-tagged wildtype LRRK2 in HEK293 cells, 24 hours; read-out: **WT Dmax (%)
Sequence (Q5S007 whole entry): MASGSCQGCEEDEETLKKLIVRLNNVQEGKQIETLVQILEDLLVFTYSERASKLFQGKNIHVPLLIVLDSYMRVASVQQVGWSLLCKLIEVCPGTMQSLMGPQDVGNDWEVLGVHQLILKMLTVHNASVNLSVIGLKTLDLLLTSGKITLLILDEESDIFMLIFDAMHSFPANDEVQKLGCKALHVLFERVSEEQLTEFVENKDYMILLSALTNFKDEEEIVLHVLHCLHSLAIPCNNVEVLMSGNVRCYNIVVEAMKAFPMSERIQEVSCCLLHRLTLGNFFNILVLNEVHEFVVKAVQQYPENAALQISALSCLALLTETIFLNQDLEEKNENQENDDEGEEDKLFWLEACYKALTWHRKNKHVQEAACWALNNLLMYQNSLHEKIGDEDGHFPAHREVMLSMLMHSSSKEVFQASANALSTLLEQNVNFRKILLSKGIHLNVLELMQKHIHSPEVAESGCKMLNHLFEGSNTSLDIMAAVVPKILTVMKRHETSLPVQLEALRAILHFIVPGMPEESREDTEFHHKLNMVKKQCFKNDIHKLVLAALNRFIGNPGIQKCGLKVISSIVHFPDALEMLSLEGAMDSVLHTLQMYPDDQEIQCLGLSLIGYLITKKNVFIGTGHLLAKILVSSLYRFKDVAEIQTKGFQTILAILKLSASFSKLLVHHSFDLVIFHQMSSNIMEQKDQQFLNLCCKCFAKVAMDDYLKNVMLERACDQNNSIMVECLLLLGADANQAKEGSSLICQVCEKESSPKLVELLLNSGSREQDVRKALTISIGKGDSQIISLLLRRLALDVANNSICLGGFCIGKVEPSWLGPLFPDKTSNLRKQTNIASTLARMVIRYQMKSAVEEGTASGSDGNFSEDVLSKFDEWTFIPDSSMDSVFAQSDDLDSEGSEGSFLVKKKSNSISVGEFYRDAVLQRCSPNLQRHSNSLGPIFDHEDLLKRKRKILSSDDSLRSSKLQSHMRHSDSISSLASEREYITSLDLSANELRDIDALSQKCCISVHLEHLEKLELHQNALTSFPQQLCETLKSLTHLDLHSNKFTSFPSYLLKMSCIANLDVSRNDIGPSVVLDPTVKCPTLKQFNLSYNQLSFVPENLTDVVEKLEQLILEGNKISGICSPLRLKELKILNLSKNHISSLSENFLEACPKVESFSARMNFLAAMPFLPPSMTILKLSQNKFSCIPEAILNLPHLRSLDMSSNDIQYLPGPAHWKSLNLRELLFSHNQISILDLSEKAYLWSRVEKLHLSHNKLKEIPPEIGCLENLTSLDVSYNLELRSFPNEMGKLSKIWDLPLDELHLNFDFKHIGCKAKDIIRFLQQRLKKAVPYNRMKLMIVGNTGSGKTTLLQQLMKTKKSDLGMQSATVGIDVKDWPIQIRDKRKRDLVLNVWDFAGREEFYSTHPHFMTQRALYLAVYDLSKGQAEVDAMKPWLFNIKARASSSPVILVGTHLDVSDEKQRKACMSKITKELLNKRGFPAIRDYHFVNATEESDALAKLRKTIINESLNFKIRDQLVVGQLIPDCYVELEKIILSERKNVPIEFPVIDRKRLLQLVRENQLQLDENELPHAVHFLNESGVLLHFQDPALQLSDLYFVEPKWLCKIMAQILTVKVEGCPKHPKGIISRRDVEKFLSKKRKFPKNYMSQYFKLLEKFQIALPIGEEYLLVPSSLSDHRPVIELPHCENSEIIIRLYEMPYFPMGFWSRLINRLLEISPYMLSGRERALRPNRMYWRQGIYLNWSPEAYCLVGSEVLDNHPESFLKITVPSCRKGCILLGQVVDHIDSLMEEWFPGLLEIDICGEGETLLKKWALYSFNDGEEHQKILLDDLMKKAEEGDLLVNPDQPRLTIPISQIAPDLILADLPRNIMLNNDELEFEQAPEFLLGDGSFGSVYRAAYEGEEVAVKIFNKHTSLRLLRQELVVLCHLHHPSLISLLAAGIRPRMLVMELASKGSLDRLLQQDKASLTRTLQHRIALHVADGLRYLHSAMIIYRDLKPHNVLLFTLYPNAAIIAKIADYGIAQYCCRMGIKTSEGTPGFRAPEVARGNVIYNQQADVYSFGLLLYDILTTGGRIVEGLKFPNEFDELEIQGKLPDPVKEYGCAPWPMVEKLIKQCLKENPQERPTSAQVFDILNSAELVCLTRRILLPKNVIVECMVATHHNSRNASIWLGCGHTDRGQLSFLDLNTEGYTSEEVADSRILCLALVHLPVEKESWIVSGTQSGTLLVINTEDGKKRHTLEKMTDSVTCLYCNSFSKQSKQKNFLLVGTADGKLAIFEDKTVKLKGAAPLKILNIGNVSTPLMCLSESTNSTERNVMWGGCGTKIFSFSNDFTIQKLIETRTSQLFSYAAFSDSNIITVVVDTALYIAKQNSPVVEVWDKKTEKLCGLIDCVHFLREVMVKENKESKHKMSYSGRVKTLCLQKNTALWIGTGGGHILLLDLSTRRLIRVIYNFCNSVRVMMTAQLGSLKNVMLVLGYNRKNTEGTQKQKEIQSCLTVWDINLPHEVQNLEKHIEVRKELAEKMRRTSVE
Value Kind: Dmax

CC1(Oc2ccc3[nH]nc(-c4cc(N5CCC(O[C@@H]6CCN(CC7CCN(c8ccc9c(c8)C(=O)N(C8CCC(=O)NC8=O)C9=O)CC7)C6)CC5)ncn4)c3c2)CC1 (stereo partly shown) [Compound 116] :: 50 to 70%
CC1(Oc2ccc3[nH]nc(-c4cc(N5CCC(CN6CCN(CC7CCN(c8ccc9c(c8)C(=O)N(C8CCC(=O)NC8=O)C9=O)CC7)CC6)CC5)ncc4F)c3c2)CC1 (stereo not shown) [Compound 99] :: < 50%
CC1(Oc2ccc3[nH]nc(-c4cc(N5CCN(CC6(F)CCN(CC7CCN(c8ccc9c(c8)CN(C8CCC(=O)NC8=O)C9=O)CC7)CC6)CC5)ncn4)c3c2)CC1 (stereo not shown) [Compound 110] :: 50 to 70%
CC1(Oc2ccc3[nH]nc(-c4ccnc(N5CCC(O[C@H]6C[C@H](OC7CCN(c8ccc9c(c8)C(=O)N(C8CCC(=O)NC8=O)C9=O)CC7)C6)CC5)c4)c3c2)CC1 (stereo partly shown) [Compound 127] :: < 50%
CC1(Oc2ccc3[nH]nc(-c4cc(N5CCC(CN6CCC(F)(CN7CCN(c8ccc9c(c8)C(=O)N(C8CCC(=O)NC8=O)C9=O)CC7)CC6)CC5)ncn4)c3c2)CC1 (stereo not shown) [Compound 83] :: 50 to 70%
CC1(Oc2ccc3[nH]nc(-c4cc(N5CCC(CN6CC[C@@H](CN7CCN(c8ccc9c(c8)C(=O)N(C8CCC(=O)NC8=O)C9=O)CC7)C6)CC5)ncn4)c3c2)CC1 (stereo partly shown) [Compound 115] :: 50 to 70%

Test item CC1(Oc2ccc3[nH]nc(-c4ccnc(N5CCC(O[C@H]6CC[C@H](OC7CCN(c8ccc9c(c8)C(=O)N(C8CCC(=O)NC8=O)C9=O)CC7)CC6)CC5)c4)c3c2)CC1 (stereo partly shown) [Compound 100] ; wildtype LRRK2 (Homo sapiens); reported Dmax was < 50%

Test item C[C@H]1CN(c2cc(-c3n[nH]c4ccc(OC5(C)CC5)cc34)ncn2)CCN1CCC1CCN(CC2CCN(c3cccc4c3C(=O)N(C3CCC(=O)NC3=O)C4=O)CC2)CC1 (stereo partly shown) [Compound 138] ; wildtype LRRK2 (Homo sapiens); reported Dmax was ≥ 70%

Test item CC1(Oc2ccc3[nH]nc(-c4cc(N5CC(CN6CCN(CC7CCN(c8ccc9c(c8)C(=O)N(C8CCC(=O)NC8=O)C9=O)CC7)CC6)C5)ncn4)c3c2)CC1 (stereo not shown) [Compound 129] ; wildtype LRRK2 (Homo sapiens); reported Dmax was ≥ 70%

Test item CC1(Oc2ccc3[nH]nc(-c4ccnc(N5CCN(CC6(F)CCN(C(=O)C7CCN(c8ccc9c(c8)C(=O)N(C8CCC(=O)NC8=O)C9=O)CC7)CC6)CC5)c4)c3c2)CC1 (stereo not shown) [Compound 97] ; wildtype LRRK2 (Homo sapiens); reported Dmax was 50 to 70%
